molecular target: AMPK; assay: AMPK activation, enzyme-linked immunosorbent assay; type: biochemical; conditions: compounds of Table 1 (Table 6)
pEC50: −log10 of the molar value.

- compound: "O=C(N[C@@H]1CCN(C(=O)c2ccncc2)C1)c1cc2cc(OC3CCN(c4ccc(C(F)(F)F)cc4)CC3)ccc2o1 [1-125]"
  pEC50: "5.30 to 6.00"
- compound: "Cc1c(C(=O)NC2CCN(Cc3ccc(C#N)cc3)CC2)oc2cc(OC3CCN(c4ccc(C(F)(F)F)cc4)CC3)ccc12 [1-64]"
  pEC50: "> 7.00"
- compound: "N#Cc1ccc(CN2CCC(Oc3ccc4oc(C(=O)NC5CCN(Cc6ccccc6)CC5)cc4c3)CC2)cc1 [1-114]"
  pEC50: "6.30 to 7.00"
- compound: "N#Cc1ccc(CN2CCC(Oc3ccc(S(=O)(=O)NC4CCN(Cc5ccncc5)CC4)cn3)CC2)cc1 [1-53]"
  pEC50: "6.30 to 7.00"
- compound: "CC(C)(C)OC(=O)N1CCC(NC(=O)c2cc3cc(OC4CCN(Cc5ccc(C#N)cc5)CC4)ccc3o2)CC1 [1-113]"
  pEC50: "6.30 to 7.00"
- compound: "CN(C(=O)c1cc2cc(OC3CCN(c4ccc(C(F)(F)F)cc4)CC3)ccc2o1)C1CCN(Cc2ccc(C(F)(F)F)cc2)CC1 [1-119]"
  pEC50: "> 7.00"

---

target: AMPK; test: AMPK activation, enzyme-linked immunosorbent assay; assay type: biochemical; conditions: compounds of Table 1 (Table 6)
pEC50: −log10 of the molar value.

- compound: "CC(C)(C)OC(=O)N1CCC(NC(=O)c2cc3ccc(OC4CCN(c5ccc(OC(F)(F)F)cc5)CC4)cc3o2)CC1 [1-81]"
  pEC50: "6.30 to 7.00"
- compound: "O=C(NC1CCN(Cc2ccc(F)cc2)CC1)c1cc(OC2CCN(c3ccc(C(F)(F)F)cc3)CC2)ccn1 [1-29]"
  pEC50: "6.30 to 7.00"
- compound: "FC(F)(F)c1ccc(N2CCC(Oc3ccc4c(c3)CCC4NC3CCN(Cc4ccncc4)CC3)CC2)cc1 (stereo not drawn) [1-158]"
  pEC50: "6.30 to 7.00"
- compound: "O=C(N[C@H]1CCN(Cc2ccc(F)cc2)C1)c1ccc(OC2CCN(c3ccc(C(F)(F)F)cc3)CC2)cn1 [1-32]"
  pEC50: "6.30 to 7.00"
- compound: "N#Cc1ccc(CN2CC(NC(=O)c3ccc(OC4CCN(c5ccc(C(F)(F)F)cc5)CC4)cn3)C2)cc1 [1-41]"
  pEC50: "6.30 to 7.00"
- compound: "Cc1c(C(=O)NC2CCN(C(=O)OC(C)(C)C)CC2)oc2cc(OC3CCN(c4ccc(C(F)(F)F)cc4)CC3)ccc12 [1-61]"
  pEC50: "6.30 to 7.00"
- compound: "N#Cc1cccc(CN2CCC(NC(=O)c3cc4ccc(OC5CCN(c6ccc(C(F)(F)F)cc6)CC5)cc4s3)CC2)c1 [1-145]"
  pEC50: "6.30 to 7.00"
- compound: "NC(=O)c1ccc(CN2CCC(Oc3ccc4oc(C(=O)NC5CCN(Cc6ccncc6)CC5)cc4c3)CC2)cc1 [1-131]"
  pEC50: "5.30 to 6.00"
- compound: "COC(=O)c1ccc(CN2CCC(NC(=O)c3ccc(OC4CCN(c5ccc(C#N)cc5)CC4)cn3)CC2)cc1 [1-7]"
  pEC50: "> 7.00"
- compound: "O=C(NC1CCN(Cc2ccccc2)CC1)c1cc2cc(OC3CCN(c4ccc(C(F)(F)F)cc4)CC3)ccc2o1 [1-75]"
  pEC50: "> 7.00"
- compound: "O=C(N[C@H]1CCNC1)c1ccc(OC2CCN(c3ccc(C(F)(F)F)cc3)CC2)cn1 [1-27]"
  pEC50: "< 5.00"
- compound: "O=C(NC1CCN(Cc2ccc(F)cc2)CC1)c1ccnc(OC2CCN(c3ccc(C(F)(F)F)cc3)CC2)c1 [1-22]"
  pEC50: "5.30 to 6.00"
- compound: "O=C(NC1CCN(S(=O)(=O)c2cccnc2)CC1)c1cc2ccc(OC3CCN(c4ccc(C(F)(F)F)cc4)CC3)cc2o1 [1-106]"
  pEC50: "6.30 to 7.00"
- compound: "CN(C(=O)c1cc2cc(OC3CCN(c4ccc(C(F)(F)F)cc4)CC3)ccc2o1)C1CCN(Cc2ccc(C#N)cc2)CC1 [1-107]"
  pEC50: "> 7.00"
- compound: "N#Cc1ccc(CN2CCC(Oc3ccc4oc(C(=O)NC5CCN(Cc6ccncc6)CC5)cc4c3)CC2)cc1 [1-79]"
  pEC50: "6.30 to 7.00"

---

target: AMPK; assay: AMPK activation, enzyme-linked immunosorbent assay; type: biochemical; settings: compounds of Table 5 (Table 10)
experimentalReadout: EC50

- molecularString: "O=C(NC1CCN(Cc2ccncc2)CC1)c1ccc(OC2CCN(c3ccc(C(F)(F)F)cc3)CC2)c(F)c1"
  result: "< 1 µM"
- molecularString: "O=C(O)c1ccc(CN2CCC(NC(=O)c3ccc(OC4CCN(c5ccc(C(F)(F)F)cc5)CC4)c(F)c3)CC2)cc1"
  result: "1 to 10 µM"
- molecularString: "O=C(NC1CCN(Cc2ccccc2)CC1)c1ccc(OC2CCN(Cc3cccc(C(F)(F)F)c3)CC2)c(F)c1"
  result: "< 1 µM"
- molecularString: "O=C(NC1CCN(Cc2ccccc2)CC1)c1ccc(OC2CCN(Cc3ccc(Cl)cc3)CC2)c(F)c1"
  result: "< 1 µM"
- molecularString: "O=C(NC1CCN(Cc2ccccc2)CC1)c1ccc(OC2CCN(C(=O)c3ccc(F)cc3)CC2)c(Cl)c1"
  result: "1 to 10 µM"
- molecularString: "COc1cc(C(=O)NCCCN2CCOCC2)ccc1OC1CCN(Cc2ccc(Cl)cc2)CC1"
  result: "1 to 10 µM"
- molecularString: "O=C(NC1CCN(Cc2ccccc2)CC1)c1cc(Cl)c(OC2CCN(Cc3cccc(C(F)(F)F)c3)CC2)c(Cl)c1"
  result: "< 1 µM"
- molecularString: "N#Cc1ccc(N2CCC(Oc3ccc(C(=O)NC4CCN(Cc5ccncc5)CC4)cc3F)CC2)cc1"
  result: "< 1 µM"
- molecularString: "O=C(NC1CCN(Cc2ccccc2)CC1)c1ccc(OC2CCN(Cc3ccccc3)CC2)c(Cl)c1"
  result: "< 1 µM"
- molecularString: "O=C(NC1CCN(Cc2ccccc2)CC1)c1ccc(OC2CCN(Cc3ccc(Cl)c(Cl)c3)CC2)c(F)c1"
  result: "< 1 µM"
- molecularString: "CC(C)(C)C(=O)N1CCC(NC(=O)c2ccc(OC3CCN(c4ccc(C(F)(F)F)cc4)CC3)c(F)c2)CC1"
  result: "< 1 µM"
- molecularString: "CC(C)S(=O)(=O)N1CCC(NC(=O)c2ccc(OC3CCN(c4ccc(C(F)(F)F)cc4)CC3)c(F)c2)CC1"
  result: "< 1 µM"
- molecularString: "O=C(NC1CCN(Cc2ccccc2)CC1)c1ccc(OC2CCN(Cc3ccc(Cl)cc3)CC2)c(Cl)c1"
  result: "< 1 µM"
- molecularString: "CC(C)(C)OC(=O)NCCCNC(=O)c1ccc(OC2CCN(Cc3ccccc3)CC2)c(Cl)c1"
  result: "10 to 20 µM"
- molecularString: "O=C(NC1CCN(Cc2ccccc2)CC1)c1cccc(OC2CCN(c3ccccn3)CC2)c1"
  result: "< 1 µM"
- molecularString: "COc1ccc(CN2CCC(Oc3ccc(C(=O)N4CCN(C(=O)OC(C)(C)C)CC4)cc3)CC2)cc1"
  result: "1 to 10 µM"

---

Each entry below lists one item and its recorded EC50 value.
target: AMPK; assay: AMPK activation, enzyme-linked immunosorbent assay; format: biochemical; conditions: compounds of Table 1 (Table 6)

- compound: "CN(C(=O)c1cc2cc(OC3CCN(c4ccc(C(F)(F)F)cc4)CC3)ccc2o1)C1CCN(Cc2ccccn2)CC1 [1-117]"
  testedOn: "AMPK"
  EC50: "< 100 nM"
- compound: "O=C(NC1CCN(Cc2cccnc2)CC1)c1cc2cc(OC3CCN(c4ccc(C(F)(F)F)cc4)CC3)ccc2o1 [1-101]"
  testedOn: "AMPK"
  EC50: "< 100 nM"
- compound: "CC(C)(C)OC(=O)N1CCC(NC(=O)c2ccnc(OC3CCN(c4ccc(C(F)(F)F)cc4)CC3)c2)CC1 [1-15]"
  testedOn: "AMPK"
  EC50: "1000 to 5000 nM"
- compound: "O=C(N[C@@H]1CCN(Cc2ccncc2)C1)c1ccc(OC2CCN(c3ccc(C(F)(F)F)cc3)CC2)cn1 [1-25]"
  testedOn: "AMPK"
  EC50: "100 to 500 nM"
- compound: "O=C(O)c1ccc(CN2CCC(NC(=O)c3ccc(OC4CCN(c5ccc(C(F)(F)F)cc5)CC4)nc3)CC2)cc1 [1-46]"
  testedOn: "AMPK"
  EC50: "1000 to 5000 nM"
- compound: "NC(=O)c1ccc(CN2CCC(Oc3ccc4oc(C(=O)NC5CCN(Cc6ccccc6)CC5)cc4c3)CC2)cc1 [1-116]"
  testedOn: "AMPK"
  EC50: "100 to 500 nM"
- compound: "O=C(NC1CCN(Cc2ccccc2)CC1)c1cc2cc(OC3CCN(c4ccc(OC(F)(F)F)cc4)CC3)ccc2o1 [1-80]"
  testedOn: "AMPK"
  EC50: "< 100 nM"
